Biological target: pooled human IgG (human); also: test concentration or dose not given here
Test: cell-based or functional assay
metric: Enzyme Activity Endpoint Assay (purified): Fab′2
Give the value; after it, write the unit.

- binder: "PRT-221 (enzyme) MEVVEVWPYGQNPNGKTEILSQTEDSESLQRLRDIEDFQAEKKMQNVVYTKWLDGVDVKDHDFRKIVDGNIAYYATPLLNGRGFYDINKDFNRDSDKCAAAVAANMFHYWLDINRDNVDRFLRQNPEKHGIIELPDGQLKLSDFLNTYESDHGYRDKSKLFDFISNNFNGPVWTDKLLDNYINGYAYNYKYGRTIEDPTKNTSKINFFKEVFNEKILTNNHSIRNQNEFSVLLSEALYTGKAIGLSYGPAGLRHSLGHIISVWGADLDADGNVVAIYVTDSDDKKLTIGDERVGLKRYKISTDDENRLRLTAYEETHNTGGQIRGLWTLDTGKQAWADYFDKTEQTGTDQAEQLEHHHHHH"
  reported result: "117 ng/µL"

Note: attention shifts to another entry.
State its Enzyme Activity Endpoint Assay (purified): Fab′2: PRT-214 (enzyme) MEVVEVWPYGQNPNGKTEILSQTEDSESLQRLRDIEDFQAEKKKEGVVYTKWLDGVDVDDHDFRKITDGDIEYYATPLLNGRGFYDINKDFNRDSDKCAAAVAANMFHYWLDRNRDNVDRFLKQNPEKHGIIELPDGQLKLSDFLNTYESDYGYRDKSKLFDFISNNFNGPVWTDKLLDNYINGYAYNYKYGRTIEDPTKNTSKINFFKEVFDEKLLTNNHSIRNYNEFSELLREALYTGKAIGLSYGPAGLRHSLGHIISVWGADLDEDGNVVAIYVTDSDDKKLTIGDERVGLKRYKVSSDDENRARLTAYEEKDNTGGEIRGLYTLDTGKQAWADYFDKTEQTGTDQAEQLEHHHHHH
467 ng/µL
